- study target: UniProt:P32305
- Sequence (P32305 whole entry): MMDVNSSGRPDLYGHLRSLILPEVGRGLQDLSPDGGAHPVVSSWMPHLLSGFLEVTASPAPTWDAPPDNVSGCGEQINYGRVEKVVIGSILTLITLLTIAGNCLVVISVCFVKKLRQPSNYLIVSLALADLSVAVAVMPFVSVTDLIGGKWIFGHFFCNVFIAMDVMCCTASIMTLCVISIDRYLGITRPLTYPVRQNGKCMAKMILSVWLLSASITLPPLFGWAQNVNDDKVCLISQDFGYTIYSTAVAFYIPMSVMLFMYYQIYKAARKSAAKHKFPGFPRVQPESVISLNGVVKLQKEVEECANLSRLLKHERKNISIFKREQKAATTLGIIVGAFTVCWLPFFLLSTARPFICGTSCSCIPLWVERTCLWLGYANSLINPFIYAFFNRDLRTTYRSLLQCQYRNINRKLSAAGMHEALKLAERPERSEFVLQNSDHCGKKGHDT
- assay details: Binding affinity towards 5-hydroxytryptamine receptor 7 on rat hypothalamus membranes using [3H]5-CT as radioligand.
- Format: tissue-based, Membrane
measurement name: pKi
Lab note: report pKi as minus log10 of the concentration in molar units, number only.

{"molecule": "COc1ccccc1N1CCN(CCCN2C(=O)c3cccc4cccc2c34)CC1", "measurement name": "pKi", "reading": 6.40}
{"molecule": "O=C1Nc2cccc3c2C1(CCCCN1CC=C(c2ccccc2)CC1)CCC3 (stereo not given)", "measurement name": "pKi", "reading": 7.30}
{"molecule": "Cc1cccc(S(=O)(=O)N(C)[C@H](C)CCN2CCC(C)CC2)c1", "measurement name": "pKi", "reading": 7.10}

We next turn to a different molecule, shown below.
# get_value(readout='pKi', item= O=S1(=O)c2cccc3cccc(c23)N1CCCCN1CCN(c2ccccc2)CC1 ) 6.00
